Test system: COLO 205
Measurement notes: Cell cycle arrest in human COLO205 cells assessed as accumulation at S phase at 4 uM after 24 hrs by FACS analysis (reference value: 8.91%)
Assay type: functional
Here, each record is paired with measured Percentage of cells in S phase data.
Quantity kind: Percentage of cells in S phase (%)

Compound	Data value
COc1cc([C@@H]2c3cc4c(cc3[C@@H](O[C@@H]3O[C@@H]5CO[C@@H](C)O[C@H]5[C@H](O)[C@H]3O)[C@H]3COC(=O)[C@H]23)OCO4)cc(OC)c1O [ETOPOSIDE]	6.97
COc1cc([C@@H]2c3cc4c(cc3[C@@H](NS(=O)(=O)c3ccc(Br)s3)[C@H]3COC(=O)[C@H]23)OCO4)cc(OC)c1OC	16.51
COC(=O)c1sccc1S(=O)(=O)N[C@@H]1c2cc3c(cc2[C@@H](c2cc(OC)c(OC)c(OC)c2)[C@H]2C(=O)OC[C@@H]21)OCO3	8.16
COc1cc([C@@H]2c3cc4c(cc3[C@@H](NS(=O)(=O)c3cccc5cccnc35)[C@H]3COC(=O)[C@H]23)OCO4)cc(OC)c1OC	10.35

---

Test system: COLO 205
Measurement notes: Cell cycle arrest in human COLO205 cells assessed as accumulation at G2/M phase at 4 uM after 24 hrs by FACS analysis (reference value: 25.92%)
Assay type: functional
Quantity kind: Percentage of cells in G2/M phase (%)

Compound	Study system	Units text	Data value
COc1cc([C@@H]2c3cc4c(cc3[C@@H](NS(=O)(=O)c3ccc(Br)s3)[C@H]3COC(=O)[C@H]23)OCO4)cc(OC)c1OC	COLO 205	%	37.78
COc1cc([C@@H]2c3cc4c(cc3[C@@H](O[C@@H]3O[C@@H]5CO[C@@H](C)O[C@H]5[C@H](O)[C@H]3O)[C@H]3COC(=O)[C@H]23)OCO4)cc(OC)c1O [ETOPOSIDE]	COLO 205	%	74.27
COc1cc([C@@H]2c3cc4c(cc3[C@@H](NS(=O)(=O)c3cccc5cccnc35)[C@H]3COC(=O)[C@H]23)OCO4)cc(OC)c1OC	COLO 205	%	28.19
COC(=O)c1sccc1S(=O)(=O)N[C@@H]1c2cc3c(cc2[C@@H](c2cc(OC)c(OC)c(OC)c2)[C@H]2C(=O)OC[C@@H]21)OCO3	COLO 205	%	40.57

---

System: COLO 205
Measurement notes: Cell cycle arrest in human COLO205 cells assessed as accumulation at G1 phase at 4 uM after 24 hrs by FACS analysis (reference value: 60.89%)
Format: functional
Here, each record is paired with measured Activity data.

Compound	Units text	Activity
COC(=O)c1sccc1S(=O)(=O)N[C@@H]1c2cc3c(cc2[C@@H](c2cc(OC)c(OC)c(OC)c2)[C@H]2C(=O)OC[C@@H]21)OCO3	%	27.43
COc1cc([C@@H]2c3cc4c(cc3[C@@H](NS(=O)(=O)c3cccc5cccnc35)[C@H]3COC(=O)[C@H]23)OCO4)cc(OC)c1OC	%	58.41
COc1cc([C@@H]2c3cc4c(cc3[C@@H](NS(=O)(=O)c3ccc(Br)s3)[C@H]3COC(=O)[C@H]23)OCO4)cc(OC)c1OC	%	34.67
COc1cc([C@@H]2c3cc4c(cc3[C@@H](O[C@@H]3O[C@@H]5CO[C@@H](C)O[C@H]5[C@H](O)[C@H]3O)[C@H]3COC(=O)[C@H]23)OCO4)cc(OC)c1O [ETOPOSIDE]	%	12.82

---

Test system: MCF7
Measurement notes: Growth inhibition of human MCF7 cells after 48 hrs by sulforhodamine B assay
Type: functional
Condition parameters: MCF7, 48 h
# note: exactly 200 nM is not below, so it is not met; use met for GI50 strictly under it

Smiles notation	Discrete label
COc1cc([C@@H]2c3cc4c(cc3[C@@H](NS(=O)(=O)c3ccc(Br)s3)[C@H]3COC(=O)[C@H]23)OCO4)cc(OC)c1OC	met
COc1cc([C@@H]2c3cc4c(cc3[C@@H](NC(=O)c3ccc(NS(=O)(=O)c5cccc6nsnc56)cc3)[C@H]3COC(=O)[C@H]23)OCO4)cc(OC)c1OC	met
COc1cc([C@@H]2c3cc4c(cc3[C@@H](NS(=O)(=O)c3ccc(-c5ccccc5)cc3)[C@H]3COC(=O)[C@H]23)OCO4)cc(OC)c1OC	not met
COC(=O)c1sccc1S(=O)(=O)N[C@@H]1c2cc3c(cc2[C@@H](c2cc(OC)c(OC)c(OC)c2)[C@H]2C(=O)OC[C@@H]21)OCO3	met
COc1cccc2c1C(=O)c1c(O)c3c(c(O)c1C2=O)C[C@@](O)(C(=O)CO)C[C@@H]3O[C@H]1C[C@H](N)[C@H](O)[C@H](C)O1	met
COc1cc([C@@H]2c3cc4c(cc3[C@@H](NC(=O)c3ccc(NS(=O)(=O)c5cccc6cccnc56)cc3)[C@H]3COC(=O)[C@H]23)OCO4)cc(OC)c1OC	not met

---

Here, each record is paired with measured GI50 data.
Tested on: KB
Measurement notes: Growth inhibition of human KB cells after 48 hrs by sulforhodamine B assay
Assay type: functional

Smiles notation	GI50 / nM
COc1cc([C@@H]2c3cc4c(cc3[C@@H](NS(=O)(=O)c3ccc(S(=O)(=O)c5ccccc5)s3)[C@H]3COC(=O)[C@H]23)OCO4)cc(OC)c1OC	2110
COc1cc([C@@H]2c3cc4c(cc3[C@@H](NS(=O)(=O)c3ccc(Br)s3)[C@H]3COC(=O)[C@H]23)OCO4)cc(OC)c1OC	40
COc1cc([C@@H]2c3cc4c(cc3[C@@H](NC(=O)c3ccc(NS(=O)(=O)c5ccc(Oc6ccccc6)cc5)cc3)[C@H]3COC(=O)[C@H]23)OCO4)cc(OC)c1OC	2010
COc1cc([C@@H]2c3cc4c(cc3[C@@H](NS(=O)(=O)c3cc(Cl)sc3Cl)[C@H]3COC(=O)[C@H]23)OCO4)cc(OC)c1OC	2100
COC(=O)c1sccc1S(=O)(=O)N[C@@H]1c2cc3c(cc2[C@@H](c2cc(OC)c(OC)c(OC)c2)[C@H]2C(=O)OC[C@@H]21)OCO3	40
COc1cc([C@@H]2c3cc4c(cc3[C@@H](NS(=O)(=O)c3ccc(Oc5ccccc5)cc3)[C@H]3COC(=O)[C@H]23)OCO4)cc(OC)c1OC	2310
COc1cc([C@@H]2c3cc4c(cc3[C@@H](NS(=O)(=O)c3cccc5ccccc35)[C@H]3COC(=O)[C@H]23)OCO4)cc(OC)c1OC	2300
COc1cc([C@@H]2c3cc4c(cc3[C@@H](NS(=O)(=O)c3cccc5cccnc35)[C@H]3COC(=O)[C@H]23)OCO4)cc(OC)c1OC	60

---

Test system: KB
Measurement notes: Growth inhibition of human KB cells after 48 hrs by sulforhodamine B assay
Format: functional
Quantity kind: GI50 (nM)

Compound	Data value
COc1cc([C@@H]2c3cc4c(cc3[C@@H](NS(=O)(=O)c3sc(NC(C)=O)nc3C)[C@H]3COC(=O)[C@H]23)OCO4)cc(OC)c1OC	170
COc1cc([C@@H]2c3cc4c(cc3[C@@H](NC(=O)c3ccc(NS(=O)(=O)c5cccc6ccccc56)cc3)[C@H]3COC(=O)[C@H]23)OCO4)cc(OC)c1OC	2000
COc1cc([C@@H]2c3cc4c(cc3[C@@H](NC(=O)c3ccc(NS(=O)(=O)c5ccc(-c6ccccc6)cc5)cc3)[C@H]3COC(=O)[C@H]23)OCO4)cc(OC)c1OC	2500
COc1cc([C@@H]2c3cc4c(cc3[C@@H](O[C@@H]3O[C@@H]5CO[C@@H](C)O[C@H]5[C@H](O)[C@H]3O)[C@H]3COC(=O)[C@H]23)OCO4)cc(OC)c1O [ETOPOSIDE]	310
COc1cccc2c1C(=O)c1c(O)c3c(c(O)c1C2=O)C[C@@](O)(C(=O)CO)C[C@@H]3O[C@H]1C[C@H](N)[C@H](O)[C@H](C)O1	170

---

System: A549
Measurement notes: Growth inhibition of human A549 cells after 48 hrs by sulforhodamine B assay
Format: functional
Condition parameters: A549, 48 h

Compound	Units text	GI50
COc1cc([C@@H]2c3cc4c(cc3[C@@H](O[C@@H]3O[C@@H]5CO[C@@H](C)O[C@H]5[C@H](O)[C@H]3O)[C@H]3COC(=O)[C@H]23)OCO4)cc(OC)c1O [ETOPOSIDE]	nM	3080
COc1cc([C@@H]2c3cc4c(cc3[C@@H](NS(=O)(=O)c3cccc5nsnc35)[C@H]3COC(=O)[C@H]23)OCO4)cc(OC)c1OC	nM	2710
COc1cc([C@@H]2c3cc4c(cc3[C@@H](NS(=O)(=O)c3ccc(-c5ccccc5)cc3)[C@H]3COC(=O)[C@H]23)OCO4)cc(OC)c1OC	nM	2000
COc1cc([C@@H]2c3cc4c(cc3[C@@H](NS(=O)(=O)c3cccc5ccccc35)[C@H]3COC(=O)[C@H]23)OCO4)cc(OC)c1OC	nM	160
COc1cc([C@@H]2c3cc4c(cc3[C@@H](NC(=O)c3ccc(NS(=O)(=O)c5cccc6ccccc56)cc3)[C@H]3COC(=O)[C@H]23)OCO4)cc(OC)c1OC	nM	2600
COc1cc([C@@H]2c3cc4c(cc3[C@@H](NC(=O)c3ccc(NS(=O)(=O)c5cccc6cccnc56)cc3)[C@H]3COC(=O)[C@H]23)OCO4)cc(OC)c1OC	nM	2510
COC(=O)c1sccc1S(=O)(=O)N[C@@H]1c2cc3c(cc2[C@@H](c2cc(OC)c(OC)c(OC)c2)[C@H]2C(=O)OC[C@@H]21)OCO3	nM	150
COc1cc([C@@H]2c3cc4c(cc3[C@@H](NS(=O)(=O)c3cc(Cl)sc3Cl)[C@H]3COC(=O)[C@H]23)OCO4)cc(OC)c1OC	nM	140
COc1cc([C@@H]2c3cc4c(cc3[C@@H](NC(=O)c3ccc(NS(=O)(=O)c5ccc(Oc6ccccc6)cc5)cc3)[C@H]3COC(=O)[C@H]23)OCO4)cc(OC)c1OC	nM	2700
COc1cc([C@@H]2c3cc4c(cc3[C@@H](NS(=O)(=O)c3sc(NC(C)=O)nc3C)[C@H]3COC(=O)[C@H]23)OCO4)cc(OC)c1OC	nM	120
COc1cc([C@@H]2c3cc4c(cc3[C@@H](NS(=O)(=O)c3ccc(Oc5ccccc5)cc3)[C@H]3COC(=O)[C@H]23)OCO4)cc(OC)c1OC	nM	2110
COc1cc([C@@H]2c3cc4c(cc3[C@@H](NS(=O)(=O)c3ccc(Br)s3)[C@H]3COC(=O)[C@H]23)OCO4)cc(OC)c1OC	nM	120
COc1cc([C@@H]2c3cc4c(cc3[C@@H](NS(=O)(=O)c3cccc5cccnc35)[C@H]3COC(=O)[C@H]23)OCO4)cc(OC)c1OC	nM	40
